- System: blood coagulation
- assay.info: PT and aPTT assay in cynomolgus monkeys (Example 46)
- Format: in vivo
- assay.conditions: Day −14; platelet poor plasma; relative to PBS group
- Protocol: Groups, each consisting of two male and two female monkeys, were injected subcutaneously with 25 mg/kg of ISIS 416850, ISIS 449709, ISIS 445522, ISIS 449710, ISIS 449707, ISIS 449711, ISIS 449708, 416858, and ISIS 445531. […] Body weights were taken 14 days and 7 days before the start of treatment and were then measured weekly throughout the treatment period. […] PT and aPTT were measured using platelet poor plasma (PPP) from […] treated with ISIS oligonucleotides. […]
Strand notation (5' to 3'): a small letter for the sugar, then the base; units joined by * are phosphorothioate-linked, units joined directly phosphodiester-linked; [ ] holds rarer units or linkages, { } end groups; capitals alone tell only the bases. e = 2'-O-(2-methoxyethyl) (MOE); [5mC] = 5-methylcytosine; d = 2'-deoxy (DNA)
measurement.name: PT ratio (INR)

>>> numeric_result("ISIS 416850: MOE gapmer, nucleobases 1275 to 1318 of SEQ ID NO: 1 (Table 8) (antisense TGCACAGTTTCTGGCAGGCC; MOE gapmer, wing and gap sizes not given here)")
1.02
>>> numeric_result("ISIS 445531: 5-8-5 or 6-8-6 MOE microwalk gapmer (Table 44) (antisense eG*eG*e[5mC]*eA*eT*dT*dG*dG*dT*dG*d[5mC]*dA*d[5mC]*eA*eG*eT*eT*eT)")
1.06
>>> numeric_result("ISIS 449707: 3-8-3, 4-8-4, 2-10-2, 3-10-3 or 4-10-4 MOE microwalk gapmer (Table 46) (antisense e[5mC]*eA*e[5mC]*eA*dG*dT*dT*dT*d[5mC]*dT*dG*dG*e[5mC]*eA*eG*eG)")
1.01
>>> numeric_result("ISIS 449709: 3-8-3, 4-8-4, 2-10-2, 3-10-3 or 4-10-4 MOE microwalk gapmer (Table 46) (antisense eG*e[5mC]*eA*e[5mC]*dA*dG*dT*dT*dT*d[5mC]*dT*dG*dG*d[5mC]*eA*eG*eG*e[5mC])")
1.00
>>> numeric_result("ISIS 416858: MOE gapmer, nucleobases 1275 to 1318 of SEQ ID NO: 1 (Table 8) (antisense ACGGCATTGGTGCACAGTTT; MOE gapmer, wing and gap sizes not given here)")
1.01
>>> numeric_result("ISIS 449710: 3-8-3, 4-8-4, 2-10-2, 3-10-3 or 4-10-4 MOE microwalk gapmer (Table 46) (antisense e[5mC]*eA*e[5mC]*dA*dG*dT*dT*dT*d[5mC]*dT*dG*dG*d[5mC]*eA*eG*eG)")
1.03
>>> numeric_result("ISIS 445522: 5-8-5 or 6-8-6 MOE microwalk gapmer (Table 44) (antisense eG*e[5mC]*eA*e[5mC]*eA*dG*dT*dT*dT*d[5mC]*dT*dG*dG*e[5mC]*eA*eG*eG*e[5mC])")
1.00
>>> numeric_result("ISIS 449708: 3-8-3, 4-8-4, 2-10-2, 3-10-3 or 4-10-4 MOE microwalk gapmer (Table 46) (antisense eA*e[5mC]*eA*dG*dT*dT*dT*d[5mC]*dT*dG*dG*e[5mC]*eA*eG)")
1.03
>>> numeric_result("ISIS 449711: 3-8-3, 4-8-4, 2-10-2, 3-10-3 or 4-10-4 MOE microwalk gapmer (Table 46) (antisense eA*e[5mC]*dA*dG*dT*dT*dT*d[5mC]*dT*dG*dG*d[5mC]*eA*eG)")
1.00
